Test system: HT 144 (melanoma)
testProtocol: Cytocidal action/growth inhibition, HT 144
Assay type: cell-based
particulars: Homo sapiens, HT-144, 72 h; day 3; Table 11; read-out: I50 (day 3)
outcomeMeasure: IC50 (nM)
Reply numerically in nM, unit not repeated.

Task: For HT 144 (melanoma), give IC50 of the listed molecule: COC(=O)c1cc(I)c(Oc2ccc(OC)cc2)c(I)c1
Result: 500

* * *

System: T47D (ductal mammary cancer)
testProtocol: Cytocidal action/growth inhibition, T47D
Assay type: cell-based
particulars: Homo sapiens, 72 h, day 3, Table 11, read-out: I50 (day 3)
outcomeMeasure: pIC50
// scale note: pIC50 = -log10(conc_M); give the bare number

Task: Look up pIC50 of COC(=O)c1cc(I)c(Oc2ccc(OC)cc2)c(I)c1 and report it.
Result: 6.15
